# test-system: Gastrin/cholecystokinin type B receptor (Homo sapiens)
# method-summary: Binding affinity to CCK2 receptor expressed in CHO cells assessed per mg of protein
# Assay type: cell-based

smiles-structure | Bmax
Cc1cccc(NC(=O)N[C@@H]2N=C(c3ccccc3)c3ccccc3N(C)C2=O)c1 | 14.4 pmol
CN1C(=O)[C@H](NC(=O)Nc2cccc(OCCNC(=O)COCC(=O)NCCCCCCNC(=O)COCC(=O)N[C@H]3CC[C@@]4(O)[C@H]5Cc6cc(O)cc7c6[C@@]4(CCN5C)[C@H]3O7)c2)N=C(c2ccccc2)c2ccccc21 | 18.5 pmol
CNC(=O)COCC(=O)NCCCCCCNC(=O)COCC(=O)NCCOc1cccc(NC(=O)N[C@@H]2N=C(c3ccccc3)c3ccccc3N(C)C2=O)c1 | 16 pmol
CN1C(=O)[C@H](NC(=O)Nc2cccc(OCCNC(=O)COCC(=O)N[C@H]3CC[C@@]4(O)[C@H]5Cc6cc(O)cc7c6[C@@]4(CCN5C)[C@H]3O7)c2)N=C(c2ccccc2)c2ccccc21 | 14 pmol
CN1C(=O)[C@H](NC(=O)Nc2cccc(OCCNC(=O)COCC(=O)NNC(=O)COCC(=O)N[C@H]3CC[C@@]4(O)[C@H]5Cc6cc(O)cc7c6[C@@]4(CCN5C)[C@H]3O7)c2)N=C(c2ccccc2)c2ccccc21 | 16 pmol
CN1C(=O)[C@H](NC(=O)Nc2cccc(OCCNC(=O)COCC(=O)NCCNC(=O)COCC(=O)N[C@H]3CC[C@@]4(O)[C@H]5Cc6cc(O)cc7c6[C@@]4(CCN5C)[C@H]3O7)c2)N=C(c2ccccc2)c2ccccc21 | 10.3 pmol

The values you see were collected from ChEMBL document CHEMBL1139377.
